Attribution: PubChem BioAssay AID588791

System: HEp-2 cells, RSV plaque reduction, virus titer
Assay: RSV yield reduction in HEp-2 cells – cell-based, set 5, orthogonal assay for RSV inhibitor project, late-stage follow-up (AID 588791)
Details: at 10 µM
Calls of active or inactive are those of the source.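 How the source made its calls: active means virus titer falling by more than one log, over tenfold fewer virus than untreated infected wells; inactive means the rest.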
Your response should consist of one outcome taken from active, inactive

(Q) Each compound tested received a call. Report the one for "CC(C)(C)c1ccc(Cn2c(=O)n(Cc3ccc(C(=O)NCC4COC4)cc3)c(=O)c3ccccc32)cc1" .
(A) active

(Q) Same question, "CC(C)c1ccc(Cn2c(=O)n(Cc3ccc(C(=O)NCC4COC4)cc3)c(=O)c3ncccc32)cc1" this time
(A) inactive

(Q) Same question, "CC(C)c1ccc(Cn2c(=O)n(Cc3ccc(C(=O)NCC4COC4)cc3)c(=O)c3ccccc32)cc1" this time
(A) active

(Q) Same question, "CC(C)c1ccc(Cn2c(=O)n(Cc3ccc(C(=O)NCC4COC4)cc3)c(=O)c3cccnc32)cc1" this time
(A) active
